assay: chemical genetic growth profiling, strain panel (AID 1159580);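 note: tested at 20 µM; growth read once vehicle control cultures reached saturation at 30 °C; 1 = growth at the plate median or of vehicle wells; lower values mean less growth of the strain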
condition summary: S. cerevisiae deletion strains, growth OD, locus YLR418C, strain cdc73, active compounds read low
In all, about 5,500 compounds went through this assay and about 2,000 (36%) were called active. Not shown: some 18% with an inconclusive outcome. This is one part of the list.
quantity kind: normalized growth
Give the value as a plain number.

Observe how each entry below is paired with its result.
Nc1ccc(S(=O)(=O)Nc2ccccn2)cc1 = 0.985
O=c1[nH]c(=O)n(C2C[C@@H](O)[C@@H](CO)O2)cc1F (some centres undefined) = 1.02
NCC(CC(=O)O)c1ccc(Cl)s1 (centres undefined) = 0.914
O=C1CCCC2C3CC(CN12)[C@@H]1CCCCN1C3 (some centres undefined) = 1.02
CC(C)NCC(O)c1ccc2ccccc2c1 (centres undefined) = 0.997

Exercise: Suppose we examine the compound CCC(Cc1c(I)cc(I)c(N)c1I)C(=O)O (centres undefined) ; what normalized growth value has been reported?
Solution: 1.02

Exercise: Suppose we examine the compound C=CC(C)(O)CC/C=C(\C)CCC=C(C)C (centres undefined) ; what normalized growth value has been reported?
Solution: 0.911

Exercise: Suppose we examine the compound CC(=O)Nc1cc([As](=O)(O)O)ccc1O ; what normalized growth value has been reported?
Solution: 0.997

Exercise: Suppose we examine the compound CO[C@H]1/C=C/O[C@@]2(C)Oc3c(C)c(O)c4c(O)c(c(/C=N/N5CCN(C)CC5)c(O)c4c3C2=O)NC(=O)/C(C)=C\C=C\C(C)[C@H](O)[C@@H](C)[C@@H](O)[C@@H](C)[C@@H](OC(C)=O)[C@@H]1C (some centres undefined) ; what normalized growth value has been reported?
Solution: 1.02

Exercise: Suppose we examine the compound C1CCN2C[C@@H]3C[C@H](CN4CCCC[C@@H]34)[C@H]2C1 ; what normalized growth value has been reported?
Solution: 0.98

Exercise: Suppose we examine the compound CC(C)NCC(O)c1ccc(O)c(O)c1 (centres undefined) ; what normalized growth value has been reported?
Solution: 0.986

Exercise: Suppose we examine the compound CCC[C@H]1CC2=C(C[C@@H](CC)CC3=C1C(=O)OC3=O)C(=O)OC2=O ; what normalized growth value has been reported?
Solution: 0.991

Exercise: Suppose we examine the compound CC(C)=CCC[C@](C)(O)C1CC=C(C)CC1 (some centres undefined) ; what normalized growth value has been reported?
Solution: 0.982

Exercise: Suppose we examine the compound NC[C@H](O)c1ccc(O)c(O)c1 ; what normalized growth value has been reported?
Solution: 1

Exercise: Suppose we examine the compound O=C(O)c1cccnc1Nc1cccc(C(F)(F)F)c1 ; what normalized growth value has been reported?
Solution: 0.909

Exercise: Suppose we examine the compound CSCCC(NC=O)C(=O)NC(C)C(=O)O (centres undefined) ; what normalized growth value has been reported?
Solution: 0.994

* * *

assay: chemical genetic growth profiling, strain panel (AID 1159580)
condition summary: S. cerevisiae deletion strains, growth OD, locus YJL168C, strain set2, active compounds read low
Hit rate of the full screen: of about 5,500 compounds, about 2,000 (36%) were called active. Another 18% or so got no clear call; they are omitted. Some of the results follow.
quantity kind: normalized growth

Exercise: Suppose we examine the molecule CC1(C)C(C(Cl)Cl)C2(Cl)C(Cl)C(Cl)C1(Cl)C2(Cl)Cl (configuration not stated) ; what normalized growth value has been reported?
Solution: 0.978 (inactive)

Exercise: Suppose we examine the molecule O=c1[nH]c(=O)n(C2C[C@@H](O)[C@@H](CO)O2)cc1F (some centres not stated) ; what normalized growth value has been reported?
Solution: 1.01 (inactive)

Exercise: Suppose we examine the molecule Cc1ccsc1/C=C/C1=NCCCN1C ; what normalized growth value has been reported?
Solution: 0.984 (inactive)

Exercise: Suppose we examine the molecule CC(=O)OC1CC(OC(C)=O)C2(C)C(CC(OC(C)=O)C3(C)C2CCC2(C)C(c4ccoc4)CC4OC423)C1(C)C (configuration not stated) ; what normalized growth value has been reported?
Solution: 1.01 (inactive)

Exercise: Suppose we examine the molecule CC1(C)C(O)CC(O)C2(C)C1CC(O)C1(C)C2CCC2(C)C(c3ccoc3)CC3OC321 (configuration not stated) ; what normalized growth value has been reported?
Solution: 1.01 (inactive)

Exercise: Suppose we examine the molecule Nc1ncnc2c1ncn2C1C[C@H](O)[C@@H](CO)O1 (some centres not stated) ; what normalized growth value has been reported?
Solution: 0.995 (inactive)

Exercise: Suppose we examine the molecule OC[C@@H]1CCCN2CCCC[C@H]12 ; what normalized growth value has been reported?
Solution: 1 (inactive)

* * *

assay: chemical genetic growth profiling, strain panel (AID 1159580);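 note: tested at 20 µM; growth read once vehicle control cultures reached saturation at 30 °C; 1 = growth at the plate median or of vehicle wells; lower values mean less growth of the strain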
condition summary: S. cerevisiae deletion strains, growth OD, locus YNL128W, strain TEP1, active compounds read low
Screen size: about 5,500 compounds; about 2,000 (36%) were called active. About 18% were inconclusive and are not listed. The list shows a part of the results.
In this section, each of the compounds is paired with its reported normalized growth.
Give the value as a plain number.

Observe how each entry below is paired with its result.
CC1(C)CC2C1(O)CCC1(C)C=CC(O)C21CO (stereo unspecified) = 0.996
CCCCC1(COC(=O)CCC(=O)O)C(=O)N(c2ccccc2)N(c2ccccc2)C1=O = 1.02

Exercise: Suppose we examine the compound O=[N+]([O-])c1cc([As](=O)(O)O)ccc1O ; what normalized growth value has been reported?
Solution: 0.976

Exercise: Suppose we examine the compound C1CNCCN1 ; what normalized growth value has been reported?
Solution: 1.01

Exercise: Suppose we examine the compound CCCC(C)C1(CC)C(=O)N=C(S)NC1=O (stereo unspecified) ; what normalized growth value has been reported?
Solution: 1

Exercise: Suppose we examine the compound CN1C(CC(=O)c2ccccc2)CCCC1CC(O)c1ccccc1 (stereo unspecified) ; what normalized growth value has been reported?
Solution: 1.01

* * *

In this section, each of the molecules is paired with its reported normalized growth.
assay: chemical genetic growth profiling, strain panel (AID 1159580);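 note: tested at 20 µM; growth read once vehicle control cultures reached saturation at 30 °C; 1 = growth at the plate median or of vehicle wells; lower values mean less growth of the strain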
condition summary: S. cerevisiae deletion strains, growth OD, locus YOR001W, strain rrp6, active compounds read low
Among all 5,500 compounds or so, about 2,000 (36%) were called active. Not shown: some 18% with an inconclusive outcome. Some of the results follow.
Give the value as a plain number.

Cc1ccc2c(Cl)cc(Cl)c(O)c2n1 = 1.02

Exercise: Suppose we examine the molecule C=C(C)[C@H]1CC=C(C(=O)O)CC1 ; what normalized growth value has been reported?
Solution: 0.894

Exercise: Suppose we examine the molecule CNC[C@@H](O)c1ccc(O)c(O)c1 ; what normalized growth value has been reported?
Solution: 1.01

Exercise: Suppose we examine the molecule Oc1c(I)cc(I)c2cccnc12 ; what normalized growth value has been reported?
Solution: 0.21

Exercise: Suppose we examine the molecule O=C(O[C@@H]1Cc2c(O)cc(O)cc2O[C@@H]1c1cc(O)c(O)c(O)c1-c1c([C@H]2Oc3cc(O)cc(O)c3C[C@H]2O)cc(O)c(O)c1O)c1cc(O)c(O)c(O)c1 ; what normalized growth value has been reported?
Solution: 0.981

Exercise: Suppose we examine the molecule OC[C@@H]1CCCN2CCCC[C@H]12 ; what normalized growth value has been reported?
Solution: 1.02

Exercise: Suppose we examine the molecule O=C(O)C1=CCNCC1 ; what normalized growth value has been reported?
Solution: 1

Exercise: Suppose we examine the molecule Cc1occc(=O)c1O ; what normalized growth value has been reported?
Solution: 0.983

* * *

assay: chemical genetic growth profiling, strain panel (AID 1159580);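 note: tested at 20 µM; growth read once vehicle control cultures reached saturation at 30 °C; 1 = growth at the plate median or of vehicle wells; lower values mean less growth of the strain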
condition summary: S. cerevisiae deletion strains, growth OD, locus YBR279W, strain paf1, active compounds read low
The whole screen tested about 5,500 compounds, of which about 2,000 (36%) were called active. Roughly 18% stayed inconclusive and do not appear here. The list shows a part of the results.
quantity kind: normalized growth
Give the value as a plain number.

Observe how each entry below is paired with its result.
Cc1ccc(/C(=C\CN2CCCC2)c2ccccn2)cc1 = 0.991
CC1(C)C(=O)C=C[C@@]2(C)C1=C(O)C(=O)[C@]1(C)C2CC[C@@]2(C)[C@H](c3ccoc3)C[C@H]3O[C@]321 (stereo not given in full) = 0.908
CC(=O)O[C@@H]1C[C@@]2(C)[C@H](c3ccoc3)C[C@H]3O[C@]32[C@]2(C)C(=O)C(O)=C3C(C)(C)C(=O)C=C[C@]3(C)C12 (stereo not given in full) = 0.97
Nc1ccc(S(=O)(=O)Nc2ccc(Cl)nn2)cc1 = 0.998
C=C[C@@H](C1=CC(=O)C(OC)=C(OC)C1=O)c1ccccc1 = 0.703
Nc1ncnc2c1ncn2C1C[C@H](O)[C@@H](CO)O1 (stereo not given in full) = 1.01

Exercise: Suppose we examine the compound CC(=O)/C(=C\c1ccccc1)CC(=O)O ; what normalized growth value has been reported?
Solution: 0.999

Exercise: Suppose we examine the compound O=[N+]([O-])c1cc(O)c(O)c([N+](=O)[O-])c1 ; what normalized growth value has been reported?
Solution: 1.03

Exercise: Suppose we examine the compound COc1ccc(C(Cl)=C(c2ccc(OC)cc2)c2ccc(OC)cc2)cc1 ; what normalized growth value has been reported?
Solution: 0.984

Exercise: Suppose we examine the compound O=[N+]([O-])c1cc([As](=O)(O)O)ccc1O ; what normalized growth value has been reported?
Solution: 0.963

Exercise: Suppose we examine the compound CC(=O)O[C@H]1C[C@@H](OC(C)=O)C(C)(C)C2C[C@@H](OC(C)=O)[C@@]3(C)C4=CC(=O)O[C@@H](c5ccoc5)[C@]4(C)CCC3[C@]21C (stereo not given in full) ; what normalized growth value has been reported?
Solution: 1

Exercise: Suppose we examine the compound O=C(O)CCCCC1CCSS1 (stereo not given) ; what normalized growth value has been reported?
Solution: 0.978

Exercise: Suppose we examine the compound CCC(Cc1c(I)cc(I)c(N)c1I)C(=O)O (stereo not given) ; what normalized growth value has been reported?
Solution: 0.945

Exercise: Suppose we examine the compound COc1cccc(/C=C/C(=O)O)c1C(C)C ; what normalized growth value has been reported?
Solution: 0.995

Exercise: Suppose we examine the compound CC1(C)CCCC2(C)C3C1[C@@H](O)C2(C)C[C@H]3O (stereo not given in full) ; what normalized growth value has been reported?
Solution: 1.03

Exercise: Suppose we examine the compound NCC(O)c1ccc(O)cc1 (stereo not given) ; what normalized growth value has been reported?
Solution: 1.02
